Reference source for all entries: patent US12227509B2

Recorded log10 IC50, one value per entry.
- Experimental target: recombinant human MGAT2 (Homo sapiens (Human), UniProt Q3SYC2)
- Sequence (Q3SYC2 whole entry): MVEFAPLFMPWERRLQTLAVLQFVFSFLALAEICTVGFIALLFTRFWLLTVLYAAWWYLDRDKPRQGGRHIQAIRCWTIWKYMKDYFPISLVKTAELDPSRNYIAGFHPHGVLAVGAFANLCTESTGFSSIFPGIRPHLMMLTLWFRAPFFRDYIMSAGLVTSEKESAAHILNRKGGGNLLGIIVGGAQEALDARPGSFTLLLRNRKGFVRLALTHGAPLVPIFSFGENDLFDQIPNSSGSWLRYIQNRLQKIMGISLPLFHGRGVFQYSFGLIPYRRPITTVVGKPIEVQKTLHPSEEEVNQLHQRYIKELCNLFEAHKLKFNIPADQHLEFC
- Assay overview: Measurement of human MGAT2 inhibitory activity
- Assay type: biochemical
- Measurement setup: concentration exhibiting 50% enzyme inhibition; recombinant human MGAT2, 2-Oleoylglycerol/Oleoyl-CoA
Measured parameter: log10 IC50 (log10 of the value in nM)

[[record]]
compound = "Cc1cc(-c2nn3c(c2NC(=O)CS(C)(=O)=O)C(=O)N[C@@]2(CCc4cc(OCC(F)(F)F)ccc42)C3)ccc1F [Compound I-32]"
recorded_measurement = 0.08

[[record]]
compound = "CS(=O)(=O)CC(=O)Nc1c(-c2ccc(F)cc2)nn2c1C(=O)N[C@@]1(CCc3cc(OCC(F)(F)F)ccc31)C2 [Compound I-23]"
recorded_measurement = 0.08

[[record]]
compound = "CS(=O)(=O)CC(=O)Nc1c(-c2ccc(F)cn2)nn2c1C(=O)N[C@@]1(CCOc3cc(F)cc(F)c31)C2 [Compound I-119]"
recorded_measurement = 0.47

[[record]]
compound = "CS(=O)(=O)CC(=O)Nc1c(-c2ccc(F)cn2)nn2c1C(=O)N[C@]1(CCc3cc(F)cc(F)c31)C2 [Compound I-146]"
recorded_measurement = 0.99

[[record]]
compound = "CS(=O)(=O)CC(=O)Nc1c(-c2ccc(Cl)c(F)c2)nn2c1C(=O)N[C@@]1(CCOc3cc(F)cc(F)c31)C2 [Compound I-144]"
recorded_measurement = 0.15

[[record]]
compound = "CS(=O)(=O)CC(=O)Nc1c(-c2cc(F)cc(F)c2)nn2c1C(=O)N[C@]1(CCc3cc(OCC(F)(F)F)ccc31)C2 [Compound I-98]"
recorded_measurement = 0.33

[[record]]
compound = "C[S@@](=N)(=O)CC(=O)Nc1c(-c2ccc(F)c(Cl)c2)nn2c1C(=O)N[C@@]1(CCc3cc(OCC(F)(F)F)ccc31)C2 (single isomer, unassigned) [Compound I-72]"
recorded_measurement = 0.81

[[record]]
compound = "CS(=O)(=O)CC(=O)Nc1c(-c2ccc(C(F)(F)F)cc2)nn2c1C(=O)N[C@@]1(CCc3cc(OCC(F)(F)F)ccc31)C2 [Compound I-25]"
recorded_measurement = 0.12

[[record]]
compound = "Cc1cc(F)ccc1-c1nn2c(c1NC(=O)CS(C)(=O)=O)C(=O)N[C@@]1(CCc3cc(OCC(F)(F)F)ccc31)C2 [Compound I-35]"
recorded_measurement = 1.51

[[record]]
compound = "CS(=O)(=O)CC(=O)Nc1c(-c2ccc(C#N)cn2)nn2c1C(=O)NC1(CN(c3ccc(C(F)(F)F)cc3)C1)C2 [Compound I-7]"
recorded_measurement = 0.48

[[record]]
compound = "C[S@](=N)(=O)CC(=O)Nc1c(-c2cc(F)c(F)c(F)c2)nn2c1C(=O)N[C@@]1(CCc3cc(OCC(F)(F)F)ccc31)C2 (single isomer, unassigned) [Compound I-105]"
recorded_measurement = 0.23

[[record]]
compound = "COc1ccc(-c2nn3c(c2NC(=O)CS(C)(=O)=O)C(=O)N[C@]2(CCc4cc(OCC(F)(F)F)ccc42)C3)cc1 [Compound I-82]"
recorded_measurement = 0.81

[[record]]
compound = "CS(=O)(=O)CC(=O)Nc1c(-c2ccc(F)cn2)nn2c1C(=O)N[C@]1(CCOc3cc(F)cc(F)c31)C2 [Compound I-150]"
recorded_measurement = 1.05

